molecular target: human recombinant vasopressin V2 receptor (Homo sapiens, UniProt P30518); construct: gene AVPR2; full-length recombinant receptor in 1321N1 host cells (PerkinElmer); experiment: radioligand binding assay; assay type: cell-based; details: read-out: Bingding Assy (IC50; nmol/mL) / V2
Sequence (P30518 whole entry): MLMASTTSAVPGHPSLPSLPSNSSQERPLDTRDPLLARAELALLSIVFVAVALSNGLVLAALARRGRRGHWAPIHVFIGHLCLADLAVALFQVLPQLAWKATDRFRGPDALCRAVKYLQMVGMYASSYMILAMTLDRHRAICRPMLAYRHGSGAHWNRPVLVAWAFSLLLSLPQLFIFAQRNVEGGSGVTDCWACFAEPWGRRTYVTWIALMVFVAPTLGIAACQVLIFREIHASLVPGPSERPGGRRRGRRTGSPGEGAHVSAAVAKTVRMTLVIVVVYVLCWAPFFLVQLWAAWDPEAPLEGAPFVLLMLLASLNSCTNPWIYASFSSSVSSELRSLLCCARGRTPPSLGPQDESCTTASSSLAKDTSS
metric name: pIC50
One number for each entry, as −log10 of the molar value.

The following molecules have reported results that may help.
>>> print(df.to_string())
                                   molecule  numeric_readout
0  Cc1ccc(C(=O)Nc2ccc(C(=O)N3CCC(=C4c5ccc(Cl)cc5CCc5cccnc54)CC3)cc2)cc1 [1i]             4.74
1  CCCC(=O)Nc1ccc(S(=O)(=O)N2CCC(=C3c4ccc(Cl)cc4CCc4cccnc43)CC2)cc1 [1f]             4.40

I would be grateful if you could provide pIC50 for each of the following entries.
1. O=C(CCCCl)Nc1ccc(C(=O)N2CCC(=C3c4ccc(Cl)cc4CCc4cccnc43)CC2)cc1 [1c]
2. Cc1ccccc1C(=O)Nc1ccc(C(=O)N2CCC(=C3c4ccc(Cl)cc4CCc4cccnc43)CC2)cc1 [1h]
3. CCCC(=O)Nc1cccc(S(=O)(=O)N2CCC(=C3c4ccc(Cl)cc4CCc4cccnc43)CC2)c1 [1e]
4. O=C(Nc1ccc(C(=O)N2CCC(=C3c4ccc(Cl)cc4CCc4cccnc43)CC2)cc1)c1ccccc1F [1m]
5. O=C(Nc1ccc(C(=O)N2CCC(=C3c4ccc(Cl)cc4CCc4cccnc43)CC2)cc1)c1ccccc1Cl [1k]
6. CCCC(=O)Nc1ccc(C(=O)N2CCC(=C3c4ccc(Cl)cc4CCc4cccnc43)CC2)cc1 [1b]

1: 4.60; 2: 4.64; 3: 4.59; 4: 4.70; 5: 4.57; 6: 4.33

Hey, just so you know, these numbers are from paper PMC6271649.
